# Tested on: Sam68 (KHDRBS1)
# Test: Sam68 small-molecule binders, primary screen, biochemical, small-molecule microarray, 635 nm fluorescence (AID 1125);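 note: score merges 667 nm channel intensity with signal to noise over triplicate slides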
# Setup Conditions: small-molecule microarray binding, higher = more signal
Observation Type: composite z-score
// return a plain number; no unit text

Sample records with composite z-score:
Compound | composite z-score
C[N+](C)(C)CCCC[C@@H]1NC(=O)[C@H]2C[C@@H](C(=O)NCc3ccc(F)cc3)[C@@H](c3cccc(OCCO)c3)N2C1=O | 1.15
COC(=O)C[C@H]1O[C@]2(C(=O)N(C)c3ccccc32)[C@@H](C)[C@@H]1[Si](C)(C)c1ccc(OC)cc1 | 0.567
CN1C(=O)C2C=CC(C(O)C3CC=CCC3)N(Nc3ccccc3)C2C1=O (configuration not stated) | 1.3
CCCCCCc1nc(C2CC2)c(C)c2c1[Si](C(C)C)(C(C)C)OC2 | -1.28
COC(=O)Cn1c(C(=O)N2CCCC2)cc2c1C[C@H]1CN(C(=O)c3ccccc3)[C@@](Cc3ccc(OC)cc3)(C(=O)OC)[C@@H]21 | 0.931

// sample `C=CC[C@]1(C(N)=O)N=C(c2ccc(OCCCO)cc2)O[C@H]1c1ccccc1CN=[N+]=[N-]` , its composite z-score was 1.11

// sample `COCCOC(=O)N1C(=O)[C@@]2(c3cc(C#CCNC(N)=O)ccc31)[C@H](c1ccc(OCCO)cc1)N1[C@H](c3ccccc3)[C@H](c3ccccc3)OC(=O)[C@H]1[C@@H]2C(=O)N1CCCCCCC1` , its composite z-score was 0.82

---

# Target Or System: Torsin-1A (Homo sapiens)
# Test: small-molecule binders of mutant TOR1A in lysate, primary screen, cell lysate, small-molecule microarray, COS7 lysate, 635/667 nm fluorescence (AID 1150);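 note: score pools 667 nm emission and signal to noise measuring lysate protein binding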
# Setup Conditions: COS7 hTOR1A mutant lysate, 635 nm fluorescence, higher = more signal
Observation Type: composite z-score
// return a plain number; no unit text

Sample records with composite z-score:
Compound | Target Or System | Observation Type | Assay Value
CC(C)[Si](OCCCNS(=O)(=O)c1ccc(Br)cc1)(C(C)C)C(C)C | Torsin-1A (Homo sapiens) | composite z-score | 0.31
COCCOC(=O)N1C(=O)[C@@]2(c3cc(C#CCNC(N)=O)ccc31)[C@H](c1ccc(OCCO)cc1)N1[C@H](c3ccccc3)[C@H](c3ccccc3)OC(=O)[C@H]1[C@@H]2C(=O)N1CCCCCCC1 | Torsin-1A (Homo sapiens) | composite z-score | 0.576
CCOC(=O)C1=C[C@@H](c2ccccc2)N(S(=O)(=O)c2ccc(C)cc2)[C@H]1c1ccc(F)cc1 | Torsin-1A (Homo sapiens) | composite z-score | 0.431
O=C(O)[C@@H]1Cc2c([nH]c3ccccc23)[C@@H](c2ccccc2)N1 | Torsin-1A (Homo sapiens) | composite z-score | 0.409

Record C#CCNC(/C=C/c1ccccc1)CO (centres undefined) ; system Torsin-1A (Homo sapiens); composite z-score = 0.443

Record `COC(=O)[C@@]1(Cc2ccccc2)[C@H]2c3cc(C(=O)N4CCCC4)n(CCN4CNCC4=O)c3C[C@H]2CN1C(=O)c1ccccc1` ; system Torsin-1A (Homo sapiens); composite z-score = 1.02

Record `COCCOC(=O)N1C(=O)[C@@]2(c3cc(C#CC4=CCCCC4)ccc31)[C@H](C(=O)NC[C@H](O)c1ccccc1)[C@H]1C(=O)O[C@H](c3ccccc3)[C@H](c3ccccc3)N1[C@@H]2c1ccccc1OCCO` ; system Torsin-1A (Homo sapiens); composite z-score = 0.509

---

# Test: small-molecule microarray binders of probe aLefty2, primary screen, biochemical, biotinylated probe, 635/667 nm fluorescence (AID 1094);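 note: score merges spot fluorescence near 667 nm with spot signal-to-noise ratio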
# Setup Conditions: higher = more signal
The entries below come with measured composite z-score values attached.
// return a plain number; no unit text

Sample records with composite z-score:
Molecule | composite z-score
C=CCC(OC(C)=O)[C@@H]1[C@@H](N(Cc2cc3ccccc3o2)C(=O)Cc2ccc(F)cc2)c2cc(OCCCO)ccc2N1C(=O)c1ccc(-c2ccccc2)cc1 (some centres undefined) | -0.0598
C=CC[C@]1(C(N)=O)N=C(c2ccc(OCCCO)cc2)O[C@H]1c1ccccc1CN=[N+]=[N-] | 0.0565
CC(c1ccccc1)C(O)C1C=CC2C(=O)N(C)C(=O)C2N1N(c1ccccc1)c1ccccc1 (centres undefined) | 0.424
C=CCC(OC(C)=O)[C@@H]1[C@@H](N(Cc2cccc3ccccc23)C(=O)c2ccc(C)cc2)c2cc(OCCCO)ccc2N1C(=O)c1ccc(-c2ccccc2)cc1 (some centres undefined) | -0.11
COc1ccc(-c2ccccc2[C@@H]2N[C@H](C(=O)O)CC[C@H]2C)cc1 | -0.05

Next molecule, please.
// sample `C[C@@H]1C=CCC(=O)OC[C@H]2O[C@@H](C=C[C@@H]2O)[C@H](C)C=CCC(=O)OC[C@H]2O[C@H]1C=C[C@@H]2O` , its composite z-score was -0.0196

---

# Test: inhibitors of hydroxyurea-induced Chk1 phosphorylation, primary screen, imaging, HeLa, phospho-Chk1 antibody, percent positive cells (AID 1186)
# Setup Conditions: hydroxyurea-induced phospho-Chk1 immunofluorescence imaging, higher = more signal
Observation Type: z-score
// return a plain number; no unit text

// sample `[N-]=[N+]=NCc1ccccc1C[C@@]1(C(=O)O)N=C(c2ccc(OCCCO)cc2)O[C@@H]1c1ccccc1N=[N+]=[N-]` , its z-score was -1.08

// sample `COC(=O)[C@@]1(Cc2ccc(OC)cc2)[C@H]2c3cc(C(=O)N(C)C)n(Cc4ccc(C)c(F)c4F)c3C[C@H]2CN1C(=O)c1ccccc1` , its z-score was 0.758

---

# Test: HepG2 liver cancer cell viability effects, profiling panel, resazurin fluorescence, 24 h, PK04 Diversity Set (AID 1172); note: test concentration not given here
# Setup Conditions: higher = more signal
Each entry gets criterion not met if its z-score stays under 0.1, and criterion met if its z-score is 0.1 or above.

Input line: Entry `CCOC(=O)C[C@H]1[C@H](OC(=O)c2cc3ccccc3oc2=O)[C@@H](NC(=O)C2CCCCC2)c2cc(OCCCO)ccc2N1C(=O)c1ccc2ccccc2n1` : is its z-score no less than 0.1?
Output line: criterion not met

Input line: Entry `CO[C@@H]1COC(=O)CC=C[C@H](C)COC(=O)[C@H](Cc2ccccc2)NC(=O)CC=C[C@H]1C` : is its z-score no less than 0.1?
Output line: criterion not met

---

# Target Or System: Calmodulin-1 (Homo sapiens) (UniProt P0DP23)
# Test: calcium-bound CALM1 binders on microarrays, profiling panel, artefact control for SMM control-protein annotation, biochemical, small-molecule microarray, Cy5-labelled CALM1, plus calcium (AID 1112);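 note: score merges spot fluorescence with signal to noise from triplicate slides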
# Setup Conditions: Cy5-CALM1 binding fluorescence, higher = more signal
Each entry gets N if its composite z-score stays under -0.3, and Y if its composite z-score is -0.3 or above.

Worked examples, 5 molecules total:
Molecule | Class Label
COc1ccc([Si](C)(C)[C@@H]2[C@@H](CC(=O)N(CCO)Cc3ccccc3)O[C@]3(C(=O)N(Cc4cccc(N5CCC5=O)c4)c4ccccc43)[C@H]2C)cc1 | N
O=C1OCCC/C=C\[C@H]2OC34C=CCN(CCN5CCOCC5)C(=O)[C@H]3N(CCCCCO)C(=O)[C@@H]4C12 (stereo partly drawn) | N
COCCOC(=O)N1C(=O)[C@@]2(c3cc(C#CCCO)ccc31)[C@H](c1ccc(O)cc1)N1[C@H](c3ccccc3)[C@H](c3ccccc3)OC(=O)[C@H]1[C@@H]2C(=O)Nc1nc2ccccc2s1 | N
CO[C@H]1COC(=O)[C@@H](Cc2ccccc2)NC(=O)[C@@H](C)COC(=O)CC=C[C@@H]1C | N
O=C1C2C=CC(C(O)Cc3ccccc3)N(Nc3ccc([N+](=O)[O-])cc3)C2C(=O)N1c1ccccc1 (stereo not drawn) | Y

Input line: Entry `C=C(COC)/C(=C/C[C@@H](OC(C)=O)c1cccc(OCCO)c1)c1cc(C(=O)OC)ccc1OC` : is its composite z-score no less than -0.3?
Output line: Y

Input line: Entry `O=C1c2ccccc2[C@@]2(Cc3ccccc3N(CC(F)(F)F)C2=O)[C@H](c2ccc(CO)cc2)N1C1CCCCC1` : is its composite z-score no less than -0.3?
Output line: Y

Input line: Entry C=CC(=O)O[C@@H](Cc1ccccc1)[C@H]1C2C=CCCC=C2CN1Cc1cccc(Cl)c1 (stereo partly drawn) : is its composite z-score no less than -0.3?
Output line: Y

---

# Test: RPMI8226 myeloma cell viability, profiling panel, resazurin fluorescence, basal, 24 h, PK04 Diversity Set (AID 1180);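 note: RPMI8826 multiple myeloma cell line at 5000 cells per well; test concentration not given here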
# Setup Conditions: higher = more signal
Each entry gets No if its z-score stays under -2, and Yes if its z-score is -2 or above.

Compound | Class Label
COCCOC(=O)N1C(=O)[C@@]2(c3cc(C#CCCO)ccc31)[C@H](c1ccc(OCCO)cc1)N1[C@H](c3ccccc3)[C@H](c3ccccc3)OC(=O)[C@H]1[C@@H]2C(=O)NC[C@H](O)c1ccccc1 | Yes
CO[C@H]1O[C@H](CO)[C@@H](OC(=O)Nc2ccc(Oc3ccccc3)cc2)[C@H](OC(=O)Nc2ccccc2-c2ccccc2)[C@H]1OC(=O)Nc1ccccc1-c1ccccc1 | No
O=C1O[C@@H](c2ccccc2)[C@@H](c2ccccc2)N2[C@@H](c3ccccc3OCCO)[C@]3(C(=O)Nc4ccc(C#CC5=CCCCC5)cc43)[C@@H](C(=O)O)[C@H]12 | No
C=CCC(OC(C)=O)[C@@H]1[C@@H](N(Cc2ccc(-c3cccc(C(F)(F)F)c3)o2)C(=O)Cc2ccc(F)cc2)c2cc(OCCCO)ccc2N1C(=O)c1ccc(-c2ccccc2)cc1 (stereo not given in full) | Yes

Okay, now this compound:
Input line: Entry `COCCOC(=O)N1C(=O)[C@@]2(c3cc(C#CC4=CCCCC4)ccc31)[C@H](C(=O)NC[C@H](O)c1ccccc1)[C@H]1C(=O)O[C@H](c3ccccc3)[C@H](c3ccccc3)N1[C@@H]2c1ccc(OCCO)cc1` : is its z-score no less than -2?
Output line: Yes
